System: SK-MEL-28 melanoma
measurement_notes: NCI tumour cell line growth inhibition, 48 h; in the data active = GI50 below about 0.43 µM; inactive = the rest
Hi there, use one of these labels in your reply, thanks! T for active, F for inactive

# compound, answer_label
records = [
    ("CNC(=O)Cc1nc(-c2cccc(NS(=O)(=O)c3c(F)cccc3F)c2F)c(-c2ccnc(Nc3ccccc3)n2)s1", "T"),
    ("Cn1c2ccc(Br)cc2c2c3c(c4c5ccccc5[nH]c4c21)C(=O)N(O)C3=O", "T"),
    ("CCn1c(-c2cc3ccccc3cc2O)nn(C(=O)c2c(Cl)cccc2Cl)c1=S", "F"),
    ("COc1cccc(NC(=O)c2sc3nc4c(cc3c2N)C(=O)CCC4)c1", "F"),
]

Note: attention shifts to another entry.
How did this test come out for C=C1CCC2C(C)(COC(=O)CC)C(OC(=O)CC)CCC2(C)C1C/C=C1/C(=O)OCC1OC(=O)CC (stereo not given) ? F
